# Test system: OVCAR-3 ovarian
# Method summary: NCI tumour cell line growth inhibition, 48 h
Measured TGI by item

# example entries with known answers
{"columns": ["Molecule", "Measured attribute", "Observed value"],
 "data": [
  ["CCn1c(=O)c2ccccc2n2c(=O)c3cc4ccccc4cc3nc12", "TGI", "> 100 µM"],
  ["COC(=O)C1=CON2C3CC4CC(C3)CC(C4)C12C (stereo not drawn)", "TGI", "> 100 µM"],
  ["FC(F)(F)c1cccc2c(SCCc3n[nH]c(=S)o3)ccnc12", "TGI", "> 100 µM"],
  ["CNC1=C(C(=O)OC)SC(c2ccccc2)(c2ccccc2)SC1", "TGI", "> 100 µM"],
  ["COc1cc(OC2OC(COC(=O)c3cc(O)c(O)c(O)c3)C(O)C(O)C2O)ccc1O (stereo not drawn)", "TGI", "> 100 µM"],
  ["O=C1C(=O)N(c2nccs2)C(=O)C(=O)C1c1nc2ccccc2s1", "TGI", "> 100 µM"]
]}

Simply: COc1cc2c(cc1OC)[C@@](C)(C(O)C(O)C(C)(C)O)NCC2 (stereo partly drawn) , OVCAR-3 ovarian, TGI = > 100 µM

Reading of TGI for COC(=O)[C@H](C)NC(=O)[C@@H](OC)[C@@H]1Cc2cc3cc(OC4CC(OC5CC(O)C(O)C(C)O5)C(O)C(C)O4)c(C)c(O)c3c(O)c2C(=O)[C@H]1OC1CC(OC2CC(OC3CC(C)(O)C(O)C(C)O3)C(O)C(C)O2)C(O)C(C)O1 (stereo partly drawn) with OVCAR-3 ovarian: 7.41 µM

Case OCC(O)C(O)C(O)c1nn(-c2ccccc2)c2nc3cc(Cl)c(Cl)cc3nc12 (stereo not drawn) , OVCAR-3 ovarian, TGI recorded as > 100 µM

Readout TGI for `CCOC(=O)C(=O)CC(=O)C1=C(c2ccccc2OC)CC(c2cccs2)=CC1=O` , test system OVCAR-3 ovarian, was > 100 µM

Field TGI (OVCAR-3 ovarian), entry Cc1ccc(S(=O)(=O)N/N=C2/CCC(C(C)(C)C)CC2Br)cc1 (stereo not drawn) : 48.9 µM

OVCAR-3 ovarian TGI of `N[C@H](CCC(=O)NCP(=O)(O)O)C(=O)O` is > 100 µM

So the reported TGI for COC1=C2C=[N+](C)C3C(=C2C=CC1OC)Cc1cc2c(cc13)OCO2 (stereo not drawn) , on OVCAR-3 ovarian, turned out to be 13.7 µM

Item: O=C1CS(=O)(=O)C(c2cccc(Oc3ccccc3)c2)N1c1ccccc1 (stereo not drawn) | System: OVCAR-3 ovarian | TGI: 55.1 µM

All values here come from PubChem BioAssay (NCI).
